tested on: PXR:RXRa (NR concentration 270 nM, RXRa partner concentration 90 nM); test: PBM binding z-score (relative to random genomic background probes); higher = stronger binding; sequences stand for … in GC…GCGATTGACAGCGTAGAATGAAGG
Please enter True where PBM binding z-score is greater than or equal to 1, and False where it is lower.

In [3]: df
Out[3]:
                           seq_string  label
0  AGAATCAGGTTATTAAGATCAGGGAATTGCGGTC  False
1  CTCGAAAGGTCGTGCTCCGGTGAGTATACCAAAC   True
2  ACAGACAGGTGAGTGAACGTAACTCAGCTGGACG  False
3  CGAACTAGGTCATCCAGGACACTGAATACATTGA   True
4  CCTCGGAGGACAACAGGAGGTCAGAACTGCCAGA   True
5  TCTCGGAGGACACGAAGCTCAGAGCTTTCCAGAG  False
6  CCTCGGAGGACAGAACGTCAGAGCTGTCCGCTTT  False
7  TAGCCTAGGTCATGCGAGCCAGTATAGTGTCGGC   True
8  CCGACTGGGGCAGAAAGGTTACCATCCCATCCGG  False

----------
system: PPARg homodimer (NR concentration 180 nM); test: PBM binding z-score (relative to random genomic background probes); higher = stronger binding; sequences stand for … in GC…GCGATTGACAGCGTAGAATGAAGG
ENDPOINT LABEL: PBM binding z-score

>>> df
                            seq_string  result
 0  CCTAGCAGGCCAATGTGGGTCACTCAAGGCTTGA   0.296
 1  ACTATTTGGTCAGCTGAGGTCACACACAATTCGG     2.9
 2  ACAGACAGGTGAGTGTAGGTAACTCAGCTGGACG   0.128
 3  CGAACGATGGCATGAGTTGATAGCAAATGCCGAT   0.126
 4  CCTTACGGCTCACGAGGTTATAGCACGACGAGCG   0.161
 5  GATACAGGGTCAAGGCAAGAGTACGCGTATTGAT    2.69
 6  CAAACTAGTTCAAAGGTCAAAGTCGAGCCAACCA    6.05
 7  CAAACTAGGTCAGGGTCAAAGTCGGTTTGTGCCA     4.2
 8  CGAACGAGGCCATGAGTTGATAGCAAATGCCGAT   0.125
 9  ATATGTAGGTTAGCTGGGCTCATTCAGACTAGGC   0.611
10  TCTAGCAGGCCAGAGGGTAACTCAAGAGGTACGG  0.0885
11  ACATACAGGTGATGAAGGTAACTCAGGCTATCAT    0.36
12  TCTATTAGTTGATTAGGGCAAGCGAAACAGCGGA   0.455

----------
Overview of recorded PBM binding z-score for various sequences
test system: PPARg homodimer (NR concentration 180 nM); assay: PBM binding z-score (relative to random genomic background probes); higher = stronger binding; sequences stand for … in GC…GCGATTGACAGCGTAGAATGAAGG
ENDPOINT LABEL: PBM binding z-score

>>> df
                            seq_string  result_number
 0  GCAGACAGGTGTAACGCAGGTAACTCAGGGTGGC          -1.12
 1  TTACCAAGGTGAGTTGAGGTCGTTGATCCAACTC          0.402
 2  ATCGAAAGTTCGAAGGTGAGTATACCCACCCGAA          0.595
 3  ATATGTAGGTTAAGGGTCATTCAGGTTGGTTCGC              4
 4  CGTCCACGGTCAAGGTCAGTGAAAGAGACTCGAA           1.28
 5  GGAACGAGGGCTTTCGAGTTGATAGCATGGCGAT         -0.921
 6  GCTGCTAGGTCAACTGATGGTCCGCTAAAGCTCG          0.857
 7  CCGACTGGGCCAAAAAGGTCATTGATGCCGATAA           2.17
 8  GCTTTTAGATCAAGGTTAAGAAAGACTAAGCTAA          0.294
 9  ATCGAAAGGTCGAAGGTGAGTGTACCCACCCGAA           1.79
10  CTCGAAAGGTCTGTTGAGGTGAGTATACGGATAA         0.0956
11  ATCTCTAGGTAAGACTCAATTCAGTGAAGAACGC          0.738
12  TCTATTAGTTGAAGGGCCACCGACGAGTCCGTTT           1.31
13  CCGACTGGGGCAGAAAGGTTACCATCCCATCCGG          0.985
14  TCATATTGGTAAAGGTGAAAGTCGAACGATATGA           1.15
15  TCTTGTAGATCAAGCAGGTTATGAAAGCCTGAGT         -0.854
16  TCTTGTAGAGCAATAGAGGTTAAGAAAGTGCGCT         -0.051
17  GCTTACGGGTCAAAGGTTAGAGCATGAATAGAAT           3.25
18  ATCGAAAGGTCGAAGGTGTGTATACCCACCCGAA           1.64
19  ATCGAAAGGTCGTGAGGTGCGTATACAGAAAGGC           1.37

----------
tested on: LXRb:RXRa (NR concentration 270 nM, RXRa partner concentration 90 nM); assay: PBM binding z-score (relative to random genomic background probes); higher = stronger binding; sequences stand for … in GC…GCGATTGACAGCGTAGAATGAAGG
As shown below, each of these sequences has a reported PBM binding z-score value.
ENDPOINT LABEL: PBM binding z-score

>>> print(df.to_string())
                           seq_string       endpoint_label  result
0  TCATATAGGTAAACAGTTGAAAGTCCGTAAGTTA  PBM binding z-score    1.15
1  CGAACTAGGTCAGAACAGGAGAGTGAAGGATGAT  PBM binding z-score   0.371
2  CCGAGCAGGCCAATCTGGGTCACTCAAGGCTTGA  PBM binding z-score   0.371
3  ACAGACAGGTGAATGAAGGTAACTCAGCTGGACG  PBM binding z-score  -0.273
4  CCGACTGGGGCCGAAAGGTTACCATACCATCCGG  PBM binding z-score    1.08
5  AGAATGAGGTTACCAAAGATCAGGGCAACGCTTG  PBM binding z-score    3.11
6  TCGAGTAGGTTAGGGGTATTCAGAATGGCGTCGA  PBM binding z-score    1.01
7  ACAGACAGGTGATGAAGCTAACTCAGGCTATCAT  PBM binding z-score  -0.472

----------
test system: RARa homodimer (NR concentration 270 nM); test: PBM binding z-score (relative to random genomic background probes); higher = stronger binding; sequences stand for … in GC…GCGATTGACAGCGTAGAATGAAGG
Mark Not fulfilled for PBM binding z-score values under 0.2, and Fulfilled for everything at or above.

>>> df
                            seq_string                     target_or_test_system          label
 0  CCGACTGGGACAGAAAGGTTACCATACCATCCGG  RARa homodimer (NR concentration 270 nM)  Not fulfilled
 1  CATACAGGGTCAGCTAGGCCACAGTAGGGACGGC  RARa homodimer (NR concentration 270 nM)      Fulfilled
 2  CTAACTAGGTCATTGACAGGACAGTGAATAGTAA  RARa homodimer (NR concentration 270 nM)      Fulfilled
 3  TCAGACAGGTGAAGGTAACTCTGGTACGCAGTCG  RARa homodimer (NR concentration 270 nM)  Not fulfilled
 4  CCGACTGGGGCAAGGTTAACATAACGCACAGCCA  RARa homodimer (NR concentration 270 nM)  Not fulfilled
 5  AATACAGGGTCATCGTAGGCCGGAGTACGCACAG  RARa homodimer (NR concentration 270 nM)      Fulfilled
 6  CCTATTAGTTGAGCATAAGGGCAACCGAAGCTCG  RARa homodimer (NR concentration 270 nM)      Fulfilled
 7  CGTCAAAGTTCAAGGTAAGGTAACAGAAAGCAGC  RARa homodimer (NR concentration 270 nM)      Fulfilled
 8  CGTCCAAGGTCAATGCTAGGTAAGTGAAAGCATT  RARa homodimer (NR concentration 270 nM)  Not fulfilled
 9  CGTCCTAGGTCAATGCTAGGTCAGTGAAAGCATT  RARa homodimer (NR concentration 270 nM)  Not fulfilled
10  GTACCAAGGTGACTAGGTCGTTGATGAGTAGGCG  RARa homodimer (NR concentration 270 nM)  Not fulfilled
11  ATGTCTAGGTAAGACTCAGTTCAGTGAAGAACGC  RARa homodimer (NR concentration 270 nM)      Fulfilled
12  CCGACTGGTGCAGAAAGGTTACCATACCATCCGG  RARa homodimer (NR concentration 270 nM)  Not fulfilled
13  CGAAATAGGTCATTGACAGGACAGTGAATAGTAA  RARa homodimer (NR concentration 270 nM)      Fulfilled
14  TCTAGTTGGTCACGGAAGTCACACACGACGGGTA  RARa homodimer (NR concentration 270 nM)      Fulfilled
15  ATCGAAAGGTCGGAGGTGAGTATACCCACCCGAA  RARa homodimer (NR concentration 270 nM)  Not fulfilled
16  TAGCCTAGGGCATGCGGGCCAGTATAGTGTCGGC  RARa homodimer (NR concentration 270 nM)  Not fulfilled
17  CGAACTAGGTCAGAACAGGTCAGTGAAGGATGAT  RARa homodimer (NR concentration 270 nM)      Fulfilled
18  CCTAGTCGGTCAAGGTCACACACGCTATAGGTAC  RARa homodimer (NR concentration 270 nM)      Fulfilled
19  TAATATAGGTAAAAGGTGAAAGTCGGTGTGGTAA  RARa homodimer (NR concentration 270 nM)      Fulfilled
20  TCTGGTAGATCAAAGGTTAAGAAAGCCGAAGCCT  RARa homodimer (NR concentration 270 nM)      Fulfilled
21  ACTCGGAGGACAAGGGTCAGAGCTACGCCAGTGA  RARa homodimer (NR concentration 270 nM)      Fulfilled
